Target: Sodium-dependent noradrenaline transporter (Homo sapiens, UniProt P23975)
Sequence (P23975 whole entry): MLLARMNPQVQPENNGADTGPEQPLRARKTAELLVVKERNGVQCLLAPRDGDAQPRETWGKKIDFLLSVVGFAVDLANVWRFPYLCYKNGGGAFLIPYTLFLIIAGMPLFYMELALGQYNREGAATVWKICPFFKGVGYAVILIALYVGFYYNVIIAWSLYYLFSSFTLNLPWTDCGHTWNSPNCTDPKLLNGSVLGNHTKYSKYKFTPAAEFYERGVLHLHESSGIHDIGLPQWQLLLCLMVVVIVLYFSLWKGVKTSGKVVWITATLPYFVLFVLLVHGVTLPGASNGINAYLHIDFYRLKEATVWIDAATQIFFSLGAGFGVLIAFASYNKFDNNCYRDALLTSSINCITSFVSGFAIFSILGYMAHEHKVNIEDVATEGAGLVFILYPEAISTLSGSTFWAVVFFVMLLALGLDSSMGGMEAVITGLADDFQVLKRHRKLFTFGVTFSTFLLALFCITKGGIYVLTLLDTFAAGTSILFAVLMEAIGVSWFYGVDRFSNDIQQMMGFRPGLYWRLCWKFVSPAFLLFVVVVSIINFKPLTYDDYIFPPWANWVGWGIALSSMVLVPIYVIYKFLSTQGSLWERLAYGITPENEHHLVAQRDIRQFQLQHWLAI
Endpoint: Ki

C[C@H](N)Cn1ncc2ccc(O)cc21 = > 10 µM

====

Target: 5-hydroxytryptamine receptor 4 (Homo sapiens, UniProt Q13639)
Sequence (Q13639 whole entry): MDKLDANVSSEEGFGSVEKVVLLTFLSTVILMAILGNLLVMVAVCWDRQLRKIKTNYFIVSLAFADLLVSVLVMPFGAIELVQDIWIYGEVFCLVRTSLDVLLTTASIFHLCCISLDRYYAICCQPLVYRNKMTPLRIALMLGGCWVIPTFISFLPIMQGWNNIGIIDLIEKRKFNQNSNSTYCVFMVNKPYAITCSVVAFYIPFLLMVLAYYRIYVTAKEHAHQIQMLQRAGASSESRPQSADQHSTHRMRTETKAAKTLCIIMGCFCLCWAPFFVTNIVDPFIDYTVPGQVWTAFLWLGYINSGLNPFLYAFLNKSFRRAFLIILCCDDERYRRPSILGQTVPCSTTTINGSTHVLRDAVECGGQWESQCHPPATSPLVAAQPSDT
Assay: Inhibitory activity against 5HT4 receptor
Endpoint: Ki (nM)

C[C@H](N)Cn1ncc2ccc(O)cc21 = 515

====

The following compounds are listed with their measured Emax values.
Biological target: 5-hydroxytryptamine receptor 2C (Rattus norvegicus) (UniProt P08909)
Sequence (P08909 whole entry): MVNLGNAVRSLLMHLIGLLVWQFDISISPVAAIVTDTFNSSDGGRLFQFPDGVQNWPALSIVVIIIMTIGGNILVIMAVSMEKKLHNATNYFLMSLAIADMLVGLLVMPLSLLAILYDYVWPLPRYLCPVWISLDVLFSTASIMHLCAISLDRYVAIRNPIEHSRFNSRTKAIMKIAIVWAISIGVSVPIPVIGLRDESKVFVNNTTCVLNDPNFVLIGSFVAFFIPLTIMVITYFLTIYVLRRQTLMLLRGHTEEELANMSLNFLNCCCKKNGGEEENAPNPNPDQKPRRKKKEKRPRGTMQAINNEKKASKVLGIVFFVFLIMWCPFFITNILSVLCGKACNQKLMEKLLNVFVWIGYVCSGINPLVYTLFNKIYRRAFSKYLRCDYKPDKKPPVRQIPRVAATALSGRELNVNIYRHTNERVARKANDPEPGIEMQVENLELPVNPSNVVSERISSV
Assay: Activity against recombinant rat 5HT2C mediated intracellular calcium mobilization by FLIPR in SR3T3 cells
Endpoint: Emax (%)

CC(N)Cc1c[nH]c2ccc(O)cc12 (centres undefined) = 100
COc1ccc2[nH]cc(CC(C)N)c2c1 (centres undefined) = 103
Cc1c(O)ccc2cnn(C[C@H](C)N)c12 = 91
NCCc1c[nH]c2ccc(O)cc12 = 94
